In this section, each of the molecules is paired with its reported largest response in the series, negative = inhibition.
- target.entity: 4'-phosphopantetheinyl transferase ffp (Bacillus subtilis) (UniProt Q9F4F7)
- method.summary: qHTS Assay for Inhibitors of Bacillus subtilis Sfp phosphopantetheinyl transferase (PPTase);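 further: the enzyme is Sfp with the accession as filed and its product quenches rhodamine fluorescence; 0% = enzyme reaction without inhibitor and -100% = no enzyme wells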
- reported.conditions: Biochemical Sfp PPTase activity
About 11,000 (3.5%) of roughly 310,000 compounds were called active. Roughly 4% stayed inconclusive and do not appear here. The list comes from a sample in which actives are over-represented; it also holds close analogues and randomly drawn compounds.
Hi! Could you send only the number? It should be in %, unit omitted.

[[record]]
molecule = "COc1ccc(NC(=O)N2CCCC2C(=O)NCc2ccccc2Cl)cc1 (configuration not stated)"
meas_value = 1.27

[[record]]
molecule = "O=c1oc2ccccc2c(CNc2ccccc2)c1[N+](=O)[O-]"
meas_value = 5.08

[[record]]
molecule = "CCC(c1nnnn1Cc1ccco1)N(CCc1ccccc1)Cc1cc2ccc(OC)cc2[nH]c1=O (configuration not stated)"
meas_value = -15.9


Prompt line: Requested read-out: largest response in the series, negative = inhibition. Entry: `CC(C)NC(=O)COCc1cc(-c2ccc3c(c2)OCO3)on1`
Response line: 4.15

Prompt line: Any idea what its largest response in the series, negative = inhibition is? The molecule is `CCc1ccccc1NC(=O)c1ccc2c(c1)CCN2S(C)(=O)=O`
Response line: 10.6

----------
- target.entity: 4'-phosphopantetheinyl transferase ffp (Bacillus subtilis) (UniProt Q9F4F7)
- method.summary: qHTS Assay for Inhibitors of Bacillus subtilis Sfp phosphopantetheinyl transferase (PPTase);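 further: the enzyme is Sfp with the accession as filed and its product quenches rhodamine fluorescence; 0% = enzyme reaction without inhibitor and -100% = no enzyme wells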
- reported.conditions: Biochemical Sfp PPTase activity
About 11,000 (3.5%) of roughly 310,000 compounds were called active. Inconclusive results (about 4%) are left out. For the sample, actives were picked, then their nearest neighbours and some compounds at random.
Given measured largest response in the series, negative = inhibition, output Fulfilled if it is greater than or equal to 10% and Not fulfilled if not.

Field: example entries. Status: answers known.
[[record]]
molecule = "Cc1cc(C)n(-c2ccc3nncn3n2)n1"
assigned_category = "Fulfilled"

[[record]]
molecule = "COc1ccccc1N1CCN(C(=O)CCS(=O)(=O)c2ccc3c(c2)NC(=O)C(C)S3)CC1 (configuration not stated)"
assigned_category = "Not fulfilled"


Prompt line: API: above_or_equal(metric=largest response in the series, negative = inhibition, cutoff=10%) for item `O=C(NCCNc1ccc([N+](=O)[O-])cc1Cl)c1ccccc1F`
Response line: Fulfilled

Prompt line: For this molecule, is measured largest response in the series, negative = inhibition 10% or higher? CCC(c1nnnn1Cc1ccccc1)N(Cc1cc2cc(OC)ccc2[nH]c1=O)CC1CCCO1 (configuration not stated)
Response line: Not fulfilled

Prompt line: Does the reported largest response in the series, negative = inhibition for CC(C)(C)OC(=O)NCCCC1=CC2=CC(=O)C(C)(OC(=O)c3ccco3)C(=O)C2=CO1 (configuration not stated) fall at or above the 10% mark?
Response line: Not fulfilled

Prompt line: For this molecule, is measured largest response in the series, negative = inhibition 10% or higher? `COc1ccc(NC(=O)CN2C(=O)COc3ccc(S(=O)(=O)N4CCOCC4)cc32)c(OC)c1`
Response line: Fulfilled

Prompt line: Please tell me: is the molecule CC(C)(C)OC(=O)NCCCCC1=CC2=CC(=O)C(C)(OC(=O)c3cccs3)C(=O)C2=CO1 (configuration not stated) at or over 10% in terms of largest response in the series, negative = inhibition?
Response line: Not fulfilled
